Test system: epididymal sperm cells
Assay: Calcium imaging of mouse epididymal sperm cells with bitter tastants
Assay type: cell-based
Conditions: epididymal sperm, subcellular areas
Method: For isolation of epididymal spermatozoa, three incisions were made to the caudal epididymis, which was incubated in a 1.5-ml tube containing 1 ml of HS medium and 5 mg/ml bovine serum albumin (BSA) in a 5% CO2 incubator at 37° C. for 20 minutes (Xia et al., 2007). […] Imaging of calcium responses was conducted as previously described (Gomez et al, 2005). […] The change in fluorescence ratio (F=F340/F380) was recorded for regions-of-interest drawn on the cells. […]
property-measured: amplitudes of the responses from the acrosome and midpiece

| molecule | endpoint-value |
| --- | --- |
| CCCc1cc(=O)[nH]c(=S)[nH]1 [PROP, 6-propyl-2 thiouracil] | equally strong |
| CC[N+](CC)(CC(=O)Nc1c(C)cccc1C)Cc1ccccc1 [denatonium] | equally strong |
| C[C@@H]1C[C@@H]([C@H](O)CC2CC(=O)NC(=O)C2)C(=O)[C@@H](C)C1 [cycloheximide] | equally strong |
| NC(=S)Nc1ccccc1 [PTC, N-phenylthiourea] | equally strong |

Measured values drawn from patent US20150087610A1 for this set.
